assay-summary: Antioxidant activity against linolenic acid oxidation assessed as inhibition rate constant for conjugated diene hydroperoxide formation
Type: functional
We begin with a simple list: items and their reported Activity.

{"columns": ["smi", "Activity (×10⁴ /M/s)"],
 "data": [
  ["CC(C)=CCc1cc(CCc2cc(O)cc(O)c2)ccc1O", 6],
  ["COc1c(O)cc(CCc2cc(O)cc(O)c2)cc1CC=C(C)C", 8],
  ["CC(C)=CCc1cc(CCc2cc(O)cc(O)c2)cc(O)c1O", 9],
  ["CC(C)=CCc1cc(CCc2cc(O)c(CC=C(C)C)c(O)c2)ccc1O", 7],
  ["CC(C)=CCc1cc(CCc2cc(O)c(CC=C(C)C)c(O)c2)cc(O)c1O", 11]
]}
